Sourced from ChEMBL document CHEMBL1137764

- Tested on: Klebsiella pneumoniae
- TEST_DETAILS: Antimicrobial activity against Klebsiella pneumoniae at 512 ug/ml after 24 hrs by agar diffusion technique
- Assay type: functional
- CONDITION_NOTES: read-out: DIZ
METRIC: zone of inhibition at 512 µg/mL (mm)

SAMPLE_SMILES: CCn1cc(C(=O)O)c(=O)c2cc(F)c(N3CCN(CN4C(=O)c5ccccc5C4=O)CC3)cc21
UNIT_SYMBOL: mm
ENDPOINT_VALUE: 10

SAMPLE_SMILES: CCn1cc(C(=O)O)c(=O)c2cc(F)c(N3CCN(CN4N=C(C)CC4=O)CC3)cc21
UNIT_SYMBOL: mm
ENDPOINT_VALUE: 11

SAMPLE_SMILES: CCn1cc(C(=O)O)c(=O)c2cc(F)c(N3CCN(Cn4cnc5ccccc54)CC3)cc21
UNIT_SYMBOL: mm
ENDPOINT_VALUE: 20

SAMPLE_SMILES: CCn1cc(C(=O)O)c(=O)c2cc(F)c(N3CCN(c4nnc(-c5ccccc5)c(-c5ccccc5)n4)CC3)cc21
UNIT_SYMBOL: mm
ENDPOINT_VALUE: 0

SAMPLE_SMILES: CCn1cc(C(=O)O)c(=O)c2cc(F)c(N3CCNCC3)cc21
UNIT_SYMBOL: mm
ENDPOINT_VALUE: 12

SAMPLE_SMILES: CCn1cc(C(=O)O)c(=O)c2cc(F)c(N3CCN(CN4C(=O)c5cccc6cccc(c56)C4=O)CC3)cc21
UNIT_SYMBOL: mm
ENDPOINT_VALUE: 9

###

- System: Escherichia coli
- TEST_DETAILS: Antimicrobial activity against Escherichia coli after 24 hrs by agar diffusion technique
- Format: functional
Response field label takes Condition met when logMIC is strictly below 0.6 and Condition not met in all other cases.

MOLECULE: CCn1cc(C(=O)O)c(=O)c2cc(F)c(N3CCN(CN4CCOCC4)CC3)cc21
LABEL_CLASS: Condition not met
//
MOLECULE: CCn1cc(C(=O)O)c(=O)c2cc(F)c(N3CCN(CN4N=C(C)CC4=O)CC3)cc21
LABEL_CLASS: Condition met
//
MOLECULE: CCn1cc(C(=O)O)c(=O)c2cc(F)c(N3CCN(CN4C(=O)CCC4=O)CC3)cc21
LABEL_CLASS: Condition met
//
MOLECULE: CCn1cc(C(=O)O)c(=O)c2cc(F)c(N3CCN(CN4C(=O)c5cccc6cccc(c56)C4=O)CC3)cc21
LABEL_CLASS: Condition not met
//
MOLECULE: CCn1cc(C(=O)O)c(=O)c2cc(F)c(N3CCN(C=O)CC3)cc21 [4-N-FORMYL-1-PIPERAZINYL-NORFLOXACIN]
LABEL_CLASS: Condition not met
//
MOLECULE: CCn1cc(C(=O)O)c(=O)c2cc(F)c(N3CCN(CN4C(=O)c5ccccc5C4=O)CC3)cc21
LABEL_CLASS: Condition not met
//
MOLECULE: CCn1cc(C(=O)O)c(=O)c2cc(F)c(N3CCN(C4CCCC4)CC3)cc21
LABEL_CLASS: Condition not met
//
MOLECULE: CCn1cc(C(=O)O)c(=O)c2cc(F)c(N3CCN(c4nnc(-c5ccccc5)c(-c5ccccc5)n4)CC3)cc21
LABEL_CLASS: Condition not met
//
MOLECULE: CCn1cc(C(=O)O)c(=O)c2cc(F)c(N3CCNCC3)cc21 [NORFLOXACIN]
LABEL_CLASS: Condition not met

###

- Test system: Klebsiella pneumoniae
- TEST_DETAILS: Antimicrobial activity against Klebsiella pneumoniae at 512 ug/ml after 24 hrs by agar diffusion technique
- Assay type: functional
- CONDITION_NOTES: read-out: DIZ
METRIC: zone of inhibition at 512 µg/mL

SAMPLE_SMILES: CCn1cc(C(=O)O)c(=O)c2cc(F)c(N3CCN(CN4CCOCC4)CC3)cc21
ENDPOINT_VALUE: 20 mm
--
SAMPLE_SMILES: CCn1cc(C(=O)O)c(=O)c2cc(F)c(N3CCN(C=O)CC3)cc21
ENDPOINT_VALUE: 8 mm
--
SAMPLE_SMILES: CCn1cc(C(=O)O)c(=O)c2cc(F)c(N3CC[N+](CCO)(CCO)CC3)cc21.[Br-]
ENDPOINT_VALUE: 11 mm
--
SAMPLE_SMILES: CCn1cc(C(=O)O)c(=O)c2cc(F)c(N3CCN(C4CCCC4)CC3)cc21
ENDPOINT_VALUE: 8 mm
--
SAMPLE_SMILES: CCn1cc(C(=O)O)c(=O)c2cc(F)c(N3CCN(CN4C(=O)CCC4=O)CC3)cc21
ENDPOINT_VALUE: 31 mm

###

- Test system: Pseudomonas aeruginosa
- TEST_DETAILS: Antimicrobial activity against Pseudomonas aeruginosa at 512 ug/ml after 24 hrs by agar diffusion technique
- Format: functional
- CONDITION_NOTES: read-out: DIZ
Recorded zone of inhibition at 512 µg/mL, one value per entry.
METRIC: zone of inhibition at 512 µg/mL (mm)

SAMPLE_SMILES: CCn1cc(C(=O)O)c(=O)c2cc(F)c(N3CC[N+](CCO)(CCO)CC3)cc21.[Br-]
METRIC: zone of inhibition at 512 µg/mL
ENDPOINT_VALUE: 0
//
SAMPLE_SMILES: CCn1cc(C(=O)O)c(=O)c2cc(F)c(N3CCN(c4nnc(-c5ccccc5)c(-c5ccccc5)n4)CC3)cc21
METRIC: zone of inhibition at 512 µg/mL
ENDPOINT_VALUE: 0
//
SAMPLE_SMILES: CCn1cc(C(=O)O)c(=O)c2cc(F)c(N3CCNCC3)cc21
METRIC: zone of inhibition at 512 µg/mL
ENDPOINT_VALUE: 20
//
SAMPLE_SMILES: CCn1cc(C(=O)O)c(=O)c2cc(F)c(N3CCN(CN4N=C(C)CC4=O)CC3)cc21
METRIC: zone of inhibition at 512 µg/mL
ENDPOINT_VALUE: 18
//
SAMPLE_SMILES: CCn1cc(C(=O)O)c(=O)c2cc(F)c(N3CCN(C4CCCC4)CC3)cc21
METRIC: zone of inhibition at 512 µg/mL
ENDPOINT_VALUE: 0
//
SAMPLE_SMILES: CCn1cc(C(=O)O)c(=O)c2cc(F)c(N3CCN(CN4CCOCC4)CC3)cc21
METRIC: zone of inhibition at 512 µg/mL
ENDPOINT_VALUE: 15
//
SAMPLE_SMILES: CCn1cc(C(=O)O)c(=O)c2cc(F)c(N3CCN(CN4C(=O)CCC4=O)CC3)cc21
METRIC: zone of inhibition at 512 µg/mL
ENDPOINT_VALUE: 27
//
SAMPLE_SMILES: CCn1cc(C(=O)O)c(=O)c2cc(F)c(N3CCN(CN4C(=O)c5cccc6cccc(c56)C4=O)CC3)cc21
METRIC: zone of inhibition at 512 µg/mL
ENDPOINT_VALUE: 10
//
SAMPLE_SMILES: CCn1cc(C(=O)O)c(=O)c2cc(F)c(N3CCN(C=O)CC3)cc21
METRIC: zone of inhibition at 512 µg/mL
ENDPOINT_VALUE: 13
//
SAMPLE_SMILES: CCn1cc(C(=O)O)c(=O)c2cc(F)c(N3CCN(Cn4cnc5ccccc54)CC3)cc21
METRIC: zone of inhibition at 512 µg/mL
ENDPOINT_VALUE: 15
//
SAMPLE_SMILES: CCn1cc(C(=O)O)c(=O)c2cc(F)c(N3CCN(CN4C(=O)c5ccccc5C4=O)CC3)cc21
METRIC: zone of inhibition at 512 µg/mL
ENDPOINT_VALUE: 12

###

- Test system: Escherichia coli
- TEST_DETAILS: Antimicrobial activity against Escherichia coli at 16 ug/ml after 24 hrs by agar diffusion technique
- Assay type: functional
- CONDITION_NOTES: read-out: DIZ

SAMPLE_SMILES: CCn1cc(C(=O)O)c(=O)c2cc(F)c(N3CC[N+](CCO)(CCO)CC3)cc21.[Br-]
UNIT_SYMBOL: mm
zone of inhibition at 16 µg/mL: 4
--
SAMPLE_SMILES: CCn1cc(C(=O)O)c(=O)c2cc(F)c(N3CCN(Cn4cnc5ccccc54)CC3)cc21
UNIT_SYMBOL: mm
zone of inhibition at 16 µg/mL: 3
--
SAMPLE_SMILES: CCn1cc(C(=O)O)c(=O)c2cc(F)c(N3CCN(C=O)CC3)cc21
UNIT_SYMBOL: mm
zone of inhibition at 16 µg/mL: 2
--
SAMPLE_SMILES: CCn1cc(C(=O)O)c(=O)c2cc(F)c(N3CCN(CN4C(=O)CCC4=O)CC3)cc21
UNIT_SYMBOL: mm
zone of inhibition at 16 µg/mL: 0
--
SAMPLE_SMILES: CCn1cc(C(=O)O)c(=O)c2cc(F)c(N3CCN(C4CCCC4)CC3)cc21
UNIT_SYMBOL: mm
zone of inhibition at 16 µg/mL: 0
--
SAMPLE_SMILES: CCn1cc(C(=O)O)c(=O)c2cc(F)c(N3CCN(CN4C(=O)c5cccc6cccc(c56)C4=O)CC3)cc21
UNIT_SYMBOL: mm
zone of inhibition at 16 µg/mL: 0
